# log10(Ki) against Carbonic anhydrase 4 (Bos taurus, UniProt Q95323), merged from multiple literature sources
# Sequence (Q95323 whole entry): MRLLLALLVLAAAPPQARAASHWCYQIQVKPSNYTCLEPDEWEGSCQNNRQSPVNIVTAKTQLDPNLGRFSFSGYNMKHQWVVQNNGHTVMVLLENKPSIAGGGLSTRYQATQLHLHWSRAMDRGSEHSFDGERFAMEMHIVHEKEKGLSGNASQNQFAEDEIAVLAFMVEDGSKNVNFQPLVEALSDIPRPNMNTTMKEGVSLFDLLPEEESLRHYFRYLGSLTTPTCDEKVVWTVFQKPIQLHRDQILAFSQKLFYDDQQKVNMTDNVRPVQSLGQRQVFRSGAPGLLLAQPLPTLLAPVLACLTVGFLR
Note the log scale: values are log10 of Ki expressed in nM.

chemical string: CN(CC(=O)NS(=O)(=O)c1ccc(CCO)cc1)C(=N)N
target or test system: Carbonic anhydrase 4 (Bos taurus, UniProt Q95323)
measured: 1.93
--
chemical string: Nc1cc(C(F)(F)F)c(S(N)(=O)=O)cc1S(N)(=O)=O
target or test system: Carbonic anhydrase 4 (Bos taurus, UniProt Q95323)
measured: 2.15
--
chemical string: Cc1cc(C)[n+](CC(=O)Nc2ccc(S(N)(=O)=O)cc2)c(C)c1
target or test system: Carbonic anhydrase 4 (Bos taurus, UniProt Q95323)
measured: 2.28
--
chemical string: NCC(=O)Nc1nnc(S(N)(=O)=O)s1
target or test system: Carbonic anhydrase 4 (Bos taurus, UniProt Q95323)
measured: 1.74
--
chemical string: Nc1c(F)cc(S(N)(=O)=O)cc1I
target or test system: Carbonic anhydrase 4 (Bos taurus, UniProt Q95323)
measured: 2.10
--
chemical string: Cc1cc(C)[n+](CC(=O)Nc2cccc(S(N)(=O)=O)c2)c(C)c1
target or test system: Carbonic anhydrase 4 (Bos taurus, UniProt Q95323)
measured: 2.61
--
chemical string: NS(=O)(=O)c1ccc(COC(=O)CN(CCN(CC(=O)O)c2ccccc2O)c2ccccc2O)cc1
target or test system: Carbonic anhydrase 4 (Bos taurus, UniProt Q95323)
measured: 2.51
--
chemical string: NS(=O)(=O)c1ccc(N2C(=O)c3cccnc3C2=O)c(Br)c1
target or test system: Carbonic anhydrase 4 (Bos taurus, UniProt Q95323)
measured: 1.88

Given the compound `NS(=O)(=O)c1ccc(NC(=O)c2c(F)c(F)c(F)c(F)c2F)c(I)c1` and test system Carbonic anhydrase 4 (Bos taurus, UniProt Q95323), the measured log10(Ki) is 3.02
